Just for reference, patent US20240116985A1 is where these values come from.

Measured EC50 values are reported for all entries that follow.
- Target: full-length beta-Catenin (Uniprot ID P35222) (Homo sapiens (Human)) (UniProt P35222)
- Sequence (P35222 whole entry): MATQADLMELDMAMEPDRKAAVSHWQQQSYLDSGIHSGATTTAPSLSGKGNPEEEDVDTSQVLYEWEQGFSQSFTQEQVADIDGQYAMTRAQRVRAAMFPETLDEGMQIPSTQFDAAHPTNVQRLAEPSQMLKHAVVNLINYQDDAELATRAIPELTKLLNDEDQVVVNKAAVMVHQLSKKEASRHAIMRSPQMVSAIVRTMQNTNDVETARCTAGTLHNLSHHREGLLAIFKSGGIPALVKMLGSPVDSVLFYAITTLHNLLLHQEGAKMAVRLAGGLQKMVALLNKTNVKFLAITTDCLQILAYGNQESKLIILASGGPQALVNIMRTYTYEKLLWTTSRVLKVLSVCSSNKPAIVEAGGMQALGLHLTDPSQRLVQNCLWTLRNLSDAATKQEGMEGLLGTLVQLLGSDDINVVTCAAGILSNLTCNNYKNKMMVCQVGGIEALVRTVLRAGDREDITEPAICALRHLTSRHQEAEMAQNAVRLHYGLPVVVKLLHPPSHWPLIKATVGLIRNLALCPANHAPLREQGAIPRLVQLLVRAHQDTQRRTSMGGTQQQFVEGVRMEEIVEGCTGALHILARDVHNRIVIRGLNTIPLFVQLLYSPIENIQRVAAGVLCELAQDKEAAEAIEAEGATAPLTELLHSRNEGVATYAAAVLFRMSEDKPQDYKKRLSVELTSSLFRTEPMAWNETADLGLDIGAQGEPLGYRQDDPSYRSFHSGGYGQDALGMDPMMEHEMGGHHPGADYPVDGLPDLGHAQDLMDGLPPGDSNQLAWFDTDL
- Protocol Text: fluorescence polarization competition; 10 nM full-length beta-catenin + 10 nM 5FAM-TCF4(10-53) probe
Starred links: 1 amine or outer side, 2 acyl side, 3 side chain; linkers in the order of their positions; H or OH if unused. Positions of bridges follow the written chain, without caps; N, C: chain ends. Non-standard residues stand in square brackets, D forms with d. Primed or numbered codes have the meaning given here. *: point of attachment. PyrS2″ = (S)-3-amino-1-((pent-4-en-1-yloxy)carbonyl)pyrrolidine-3-carboxylic acid (stapling residue), C=CCCCOC(=O)N1CC[C@@](N[*:1])(C(=O)[*:2])C1; B5(4) = 2,2-bis(4-pentenyl)glycine = 2-amino-2-(pent-4-en-1-yl)hept-6-enoic acid (stitching residue), C=CCCCC(CCCC=C)(N[*:1])C(=O)[*:2]; B5(5) = 2,2-bis(4-pentenyl)glycine, 2-amino-2-(pent-4-en-1-yl)hept-6-enoic acid (stitching residue), C=CCCCC(CCCC=C)(N[*:1])C(=O)[*:2]; TfeGA = (S)-2-amino-3-((carboxymethyl)(2,2,2-trifluoroethyl)amino)propanoic acid, O=C([C@H](CN(CC(=O)[*:3])CC(F)(F)F)N[*:1])[*:2]; PyrS2 = (S)-3-amino-1-((pent-4-en-1-yloxy)carbonyl)pyrrolidine-3-carboxylic acid, C=CCCCOC(=O)N1CC[C@@](N[*:1])(C(=O)[*:2])C1; B5(22) = 2-amino-2-(pent-4-en-1-yl)hept-6-enoic acid (two alkene side chains), C=CCCCC(CCCC=C)(N[*:1])C(=O)[*:2]; B5 = 2-amino-2-(pent-4-en-1-yl)hept-6-enoic acid, C=CCCCC(CCCC=C)(N[*:1])C(=O)[*:2]; Ala(4-thiazolyl) = N[C@@H](Cc1cscn1)C(=O)O; Bta = N[C@@H](Cc1csc2ccccc12)C(=O)O; αAllylPro = C=CC[C@@]1(C(=O)O)CCCN1; tBuAla = CC(C)(C)C[C@H](N)C(=O)O; 3Thi = N[C@@H](Cc1ccsc1)C(=O)O; S8 = C=CCCCCCC[C@](C)(N)C(=O)O; hSer = N[C@@H](CCO)C(=O)O; Dab = NCC[C@H](N)C(=O)O; Dap = NC[C@H](N)C(=O)O; Ms = CS(=O)(=O)*

{"Binder": "Ac-[αAllylPro]DA[B5(4)][Dab](Ms)EAAFN[S8]F[Bta]Q-NH2 (staple 1-4, 4-11) [I-532]", "EC50": "5000 nM"}
{"Binder": "Ac-[αAllylPro]D[tBuAla][B5]D[TfeGA]AAFT[PyrS2][3Thi][Bta]S-NH2 (staple 1-4, 4-11; also: later-eluting staple isomer composition) [I-957]", "EC50": "1430 nM"}
{"Binder": "Ac-[αAllylPro]DA[B5(4)][Dab](Ms)EAAFN[S8]F[Bta]Q-NH2 (staple 1-4, 4-11) [I-531]", "EC50": "5000 nM"}
{"Binder": "Ac-[αAllylPro]DA[B5(4)][Dap](Ms)EAAFN[S8]F[Bta]Q-NH2 (staple 1-4, 4-11) [I-529]", "EC50": "5000 nM"}
{"Binder": "Ac-[αAllylPro]D[tBuAla][B5(22)]D[TfeGA]AAFN[PyrS2][3Thi][Bta]T-NH2 (staple 1-4, 4-11; also: staple isomer composition, earlier-eluting HPLC peak) [I-942]", "EC50": "1280 nM"}
{"Binder": "Ac-[αAllylPro]D[tBuAla][B5(5)]D[TfeGA]AAFN[PyrS2″][3Thi][Bta]T-NH2 (staple 1-4, 4-11; also: staple isomer composition, later-eluting HPLC peak) [I-943]", "EC50": "1990 nM"}
{"Binder": "Ac-[αAllylPro]D[tBuAla][B5]D[TfeGA]AAFS[PyrS2][3Thi][Bta]S-NH2 (staple 1-4, 4-11; also: earlier-eluting staple isomer composition) [I-954]", "EC50": "900 nM"}
{"Binder": "Ac-[αAllylPro]D[tBuAla][B5(4)]D[TfeGA]AAFN[PyrS2″][3Thi][Bta][hSer]-NH2 (staple 1-4, 4-11; also: earlier-eluting staple isomer composition) [I-950]", "EC50": "1630 nM"}
{"Binder": "Ac-[αAllylPro]D[tBuAla][B5]D[TfeGA]AAFT[PyrS2][3Thi][Bta]S-NH2 (staple 1-4, 4-11; also: earlier-eluting staple isomer composition) [I-956]", "EC50": "1090 nM"}
{"Binder": "Ac-[αAllylPro]D[tBuAla][B5(5)]D[TfeGA]AAFN[PyrS2″][3Thi][Bta]A-NH2 (staple 1-4, 4-11; also: staple isomer composition, earlier-eluting HPLC peak) [I-944]", "EC50": "761 nM"}
{"Binder": "Ac-[αAllylPro]D[tBuAla][B5(5)]D[TfeGA]AAFN[PyrS2″][3Thi][Bta]A-NH2 (staple 1-4, 4-11; also: staple isomer composition, later-eluting HPLC peak) [I-945]", "EC50": "1080 nM"}
{"Binder": "Ac-[αAllylPro]D[tBuAla][B5]D[TfeGA]AAFN[PyrS2][3Thi][Bta]Y-NH2 (staple 1-4, 4-11; also: earlier-eluting staple isomer composition) [I-952]", "EC50": "1210 nM"}
{"Binder": "Ac-[αAllylPro]D[tBuAla][B5]D[TfeGA]AAFS[PyrS2][3Thi][Bta]S-NH2 (staple 1-4, 4-11; also: later-eluting staple isomer composition) [I-955]", "EC50": "1200 nM"}
{"Binder": "Ac-[αAllylPro][Dap](Ms)A[B5(4)]DEAAFN[S8]F[Bta]Q-NH2 (staple 1-4, 4-11) [I-534]", "EC50": "5000 nM"}
{"Binder": "Ac-[αAllylPro]D[tBuAla][B5(5)]D[TfeGA]AAFN[PyrS2″][3Thi][Bta][dT]-NH2 (staple 1-4, 4-11; also: staple isomer composition, earlier-eluting HPLC peak) [I-948]", "EC50": "2430 nM"}
{"Binder": "Ac-[αAllylPro]DA[B5(4)]D[Dap](Ms)AAFN[S8]F[Bta]Q-NH2 (staple 1-4, 4-11) [I-533]", "EC50": "155 nM"}
{"Binder": "Ac-[αAllylPro]DA[B5(4)]DEAA[Ala(4-thiazolyl)]N[S8]F[Bta]Q-NH2 (staple 1-4, 4-11) [I-524]", "EC50": "2550 nM"}
